Catalogue of proteins with associated kcat
# Substrate: CC(=O)Oc1ccc2ccccc2c1
# TEST_SUMMARY: esterase activity assay
# Type: biochemical, Geobacillus stearothermophilus
# TEST_CONDITIONS: 2-naphthyl acetate 1-20 mM in isopropanol, citrate phosphate buffer pH 7
MEASUREMENT_NAME: kcat (s⁻¹)

{"PROTEIN": "Axe2 (Geobacillus stearothermophilus; R205A/W215A/Y184F) (protein) MKIGSGEKLLFIGDSITDCGRARPEGEGSFGALGTGYVAYVVGLLQAVYPELGIRVVNKGISGNTVRDLKARWEEDVIAQKPDWVSIMIGINDVWRQYDLPFMKEKHVYLDEYEATLRSLVLETKPLVKGIILMTPFYIEGNEQDPMRRTMDQYGRVVKQIAEETNSLFVDTQAAFNEVLKTLFPAALAWDRVHPSVAGHMILAAAFLREIGFEAVRSR", "MEASUREMENT_NAME": "kcat", "EXPERIMENTAL_VALUE": 42}
{"PROTEIN": "Axe2 (Geobacillus stearothermophilus; R55A) (protein) MKIGSGEKLLFIGDSITDCGRARPEGEGSFGALGTGYVAYVVGLLQAVYPELGIAVVNKGISGNTVRDLKARWEEDVIAQKPDWVSIMIGINDVWRQYDLPFMKEKHVYLDEYEATLRSLVLETKPLVKGIILMTPFYIEGNEQDPMRRTMDQYGRVVKQIAEETNSLFVDTQAAFNEVLKTLYPAALAWDRVHPSVAGHMILARAFLREIGFEWVRSR", "MEASUREMENT_NAME": "kcat", "EXPERIMENTAL_VALUE": 1000}
{"PROTEIN": "Axe2 (Geobacillus stearothermophilus; R55E) (protein) MKIGSGEKLLFIGDSITDCGRARPEGEGSFGALGTGYVAYVVGLLQAVYPELGIEVVNKGISGNTVRDLKARWEEDVIAQKPDWVSIMIGINDVWRQYDLPFMKEKHVYLDEYEATLRSLVLETKPLVKGIILMTPFYIEGNEQDPMRRTMDQYGRVVKQIAEETNSLFVDTQAAFNEVLKTLYPAALAWDRVHPSVAGHMILARAFLREIGFEWVRSR", "MEASUREMENT_NAME": "kcat", "EXPERIMENTAL_VALUE": 1000}
{"PROTEIN": "Axe2 (Geobacillus stearothermophilus; W190I) (protein) MKIGSGEKLLFIGDSITDCGRARPEGEGSFGALGTGYVAYVVGLLQAVYPELGIRVVNKGISGNTVRDLKARWEEDVIAQKPDWVSIMIGINDVWRQYDLPFMKEKHVYLDEYEATLRSLVLETKPLVKGIILMTPFYIEGNEQDPMRRTMDQYGRVVKQIAEETNSLFVDTQAAFNEVLKTLYPAALAIDRVHPSVAGHMILARAFLREIGFEWVRSR", "MEASUREMENT_NAME": "kcat", "EXPERIMENTAL_VALUE": 290}
